assay: Solvolytic stability of difluoro-dioxaborinins by 19F NMR in water/DMSO; type: physicochemical; details: solvolysis half-life, 19F NMR, 10% H2O/90% DMSO (5.55 M H2O), 25 °C
Note to self: values exactly at 20 h are Fulfilled. So Stability (t1/2, h) 10% H2O/90% DMSO at or above 20 h is Fulfilled, below is Not fulfilled.

Worked set:
CCC1=C(C)O[B-](F)(F)[O+]=C1C [Compound 3] : Fulfilled
COc1cc(/C=C/C2=CC(/C=C/c3ccc(OC(=O)CCN4C(=O)C=CC4=O)c(OC)c3)=[O+][B-](F)(F)O2)ccc1OC(=O)CCN1C(=O)C=CC1=O [Compound 10] : Not fulfilled
COc1cc(/C=C/C2=CC(/C=C/c3ccc(OC(=O)c4c(F)cc(F)cc4F)c(OC)c3)=[O+][B-](F)(F)O2)ccc1OC(=O)c1c(F)cc(F)cc1F [Compound 9] : Not fulfilled

input: Say whether CCOC(=O)CCC1=C(C)O[B-](F)(F)[O+]=C1C [Compound 6] shows Stability (t1/2, h) 10% H2O/90% DMSO of 20 h or more.
output: Fulfilled

input: Is reported Stability (t1/2, h) 10% H2O/90% DMSO greater than or equal to 20 h here: CC1=[O+][B-](F)(F)OC(C)=C1C [Compound 2]
output: Fulfilled

input: Please indicate if the recorded Stability (t1/2, h) 10% H2O/90% DMSO for CC1=CC(c2ccccc2)=[O+][B-](F)(F)O1 [Compound 14] meets or exceeds 20 h.
output: Not fulfilled

input: # bool: Stability (t1/2, h) 10% H2O/90% DMSO of CC1=CC(C)=[O+][B-](F)(F)O1 [Compound 1] >= 20 h
output: Not fulfilled

input: I'd appreciate it if you could say whether CC1=C2CCCCC2=[O+][B-](F)(F)O1 [Compound 15] has Stability (t1/2, h) 10% H2O/90% DMSO at least equal to 20 h.
output: Fulfilled

* * *

assay: Optical properties; type: physicochemical; details: in methanol
READOUT_NAME: Em (nm)
Express your answer in nm, writing the number without its unit.

Worked examples follow.
CC1=C2CCCCC2=[O+][B-](F)(F)O1 : 307
CC1=[O+][B-](F)(F)OC(C)=C1C : 307
COc1cc(/C=C/C2=CC(/C=C/c3ccc(OC(=O)c4c(F)cc(F)cc4F)c(OC)c3)=[O+][B-](F)(F)O2)ccc1OC(=O)c1c(F)cc(F)cc1F : 512
CC1=CC(c2ccccc2)=[O+][B-](F)(F)O1 : 328

// next item, Em (nm) requested
input: Can you look up the measured Em (nm) of CCOC(=O)CCC1=C(C)O[B-](F)(F)[O+]=C1C for me?
output: 307
